Target: Human Recombinant Matriptase 2 (Homo sapiens, UniProt Q8IU80)
Construct: purchased Enzo Life Sciences (an in-house preparation was also used) ALX-201-752-1
Assay: Matriptase 2 fluorescence based inhibition assay, Method A (100 mM TRIS pH 9, 1 mg/mL BSA)
Type: biochemical
Conditions: at 1 uM; Assay Used = A; read-out: Mar-2 % inhibition at 1 uM
ASSAY_METRIC: inhibition at 1 µM

Example entries and their recorded answers appear below.
INSERT INTO assay_data (compound, assay_metric, observed_result) VALUES
  ('N=C(N)c1ccc2cc(C(=O)N3CCC(CCN)CC3)n(CCCN)c2c1', 'inhibition at 1 µM', '25 to 50%'),
  ('N=C(N)c1ccc2cc(C(=O)N3CCC(F)CC3)n(Cc3ccc(OC(F)(F)F)cc3)c2c1', 'inhibition at 1 µM', '0 to 25%'),
  ('N=C(N)c1ccc2cc(C(=O)N3CCC(F)(F)CC3)n(CCS(=O)(=O)c3ccccc3)c2c1', 'inhibition at 1 µM', '0 to 25%'),
  ('CC1CCC(NC(=O)c2c(Cl)c3ccc(C(=N)N)cc3n2Cc2ccc(-c3ccccc3)cc2)CC1 (stereo not shown)', 'inhibition at 1 µM', '0 to 25%'),
  ('N=C(N)c1ccc2cc(C(=O)NCC3CCCCC3)n(Cc3ccc(C(N)=O)c(Cl)c3)c2c1', 'inhibition at 1 µM', '0 to 25%');

Task: GET /values?readout=inhibition at 1 µM&item= N=C(N)c1ccc2cc(C(=O)N3CCC(F)(F)CC3)n(Cc3cccc(NC(=O)CCN)c3)c2c1
Result: 0 to 25%

Task: Now give it for NCCCC(=O)Nc1ccc(Cn2c(C(=O)N3CCC(CCN)CC3)cc3ccc(/C(N)=N/O)cc32)cc1 too.
Result: 25 to 50%

###

Examples of compounds with documented inhibition at 1 µM follow.
Target: Human Recombinant Matriptase 2 (Homo sapiens, UniProt Q8IU80)
Construct: purchased Enzo Life Sciences (an in-house preparation was also used) ALX-201-752-1
Sequence (Q8IU80 1-811): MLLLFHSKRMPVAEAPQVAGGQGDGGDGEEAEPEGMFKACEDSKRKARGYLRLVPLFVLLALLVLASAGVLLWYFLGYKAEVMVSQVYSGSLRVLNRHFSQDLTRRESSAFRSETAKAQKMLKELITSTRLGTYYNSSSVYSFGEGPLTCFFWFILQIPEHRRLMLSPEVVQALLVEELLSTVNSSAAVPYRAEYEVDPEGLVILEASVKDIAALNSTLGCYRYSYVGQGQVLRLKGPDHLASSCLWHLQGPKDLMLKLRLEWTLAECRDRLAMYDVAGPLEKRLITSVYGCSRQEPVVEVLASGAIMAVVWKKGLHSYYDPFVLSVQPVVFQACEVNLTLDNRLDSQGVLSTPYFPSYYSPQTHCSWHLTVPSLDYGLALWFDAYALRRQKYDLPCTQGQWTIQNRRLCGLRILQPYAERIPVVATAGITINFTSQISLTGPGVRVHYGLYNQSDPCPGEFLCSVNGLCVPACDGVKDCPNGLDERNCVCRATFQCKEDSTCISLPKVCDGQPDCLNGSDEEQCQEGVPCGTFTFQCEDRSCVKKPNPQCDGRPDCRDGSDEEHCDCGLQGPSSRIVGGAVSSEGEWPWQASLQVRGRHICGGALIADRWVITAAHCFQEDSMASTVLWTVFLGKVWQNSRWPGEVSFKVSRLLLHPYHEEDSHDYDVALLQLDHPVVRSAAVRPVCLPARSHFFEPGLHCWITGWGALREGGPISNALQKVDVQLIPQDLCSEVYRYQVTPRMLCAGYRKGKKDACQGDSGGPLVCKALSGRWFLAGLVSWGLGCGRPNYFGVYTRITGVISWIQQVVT
Test: Matriptase 2 fluorescence based inhibition assay, Method A (100 mM TRIS pH 9, 1 mg/mL BSA)
Assay type: biochemical
Settings: at 1 uM; Assay Used = A; read-out: Mar-2 % inhibition at 1 uM

Task: // fetch Human Recombinant Matriptase 2 (Homo sapiens, UniProt Q8IU80) inhibition at 1 µM for N=C(N)c1ccc2cc(C(=O)N3CCC(CCN)CC3)n(Cc3ccc(C(F)(F)F)cc3)c2c1 [Compound I-278]
Result: 0 to 25%

Task: Now give it for NC(=O)c1ccc(Cn2c(C(=O)Nc3cccc(N4CCCC4)c3)cc3ccc(/C(N)=N/O)cc32)cc1 [Compound I-267] too.
Result: 0 to 25%

Task: Now give it for N=C(N)c1ccc2cc(C(=O)N3CCC(CCN)CC3)n(Cc3ccc(Oc4cccc(C(F)(F)F)c4)cc3)c2c1 [Compound I-319] too.
Result: 25 to 50%

Task: Now give it for N=C(N)c1ccc2c(Cl)c(C(=O)N3CCC(F)CC3)n(Cc3ccc(-c4ccccc4)cc3)c2c1 [Compound I-353] too.
Result: 0 to 25%
